The measured values listed here are drawn from patent US12612412B2.

# System: HMPV clinical isolate TN/1501/A1
# ASSAY EXPLANATION: HMPV antiviral assay Method-B (clinical isolate TN/1501/A1 in LLC-MK2 cells, ATP-Lite readout)
# Type: cell-based, Human metapneumovirus (HMPV)
# CONDITION INFO: human metapneumovirus, LLC-MK2, 144 h, hMPV WT1501 (clinical isolate TN/1501/A1), 6 days
pEC50: −log10 of the molar value.
MEASURED PROPERTY: pEC50

> print(dat)
                                smiles.code  measured.property  data.value
1  COc1cc(C(=O)NC[C@](O)(c2cc3c(c(-c4ccc(F)c(Cl)c4)n2)OC[C@]3(C)C(N)=O)C2CC2)cc2cc(Cl)c(C)nc12              pEC50      > 6.30
2  COc1cc(C(=O)NC[C@](O)(c2cc3c(c(-c4ccc5[nH]ccc5c4)n2)OC[C@]3(C)C(N)=O)C(F)(F)F)cc2cn(C3CC3)nc12              pEC50      < 6.30
3  Cc1cnc2c(OC(F)F)cc(C(=O)NC[C@](O)(c3cc4c(c(-c5ccc(F)cc5)n3)OC[C@]4(C)C(N)=O)C3(F)CC3)cc2c1              pEC50      > 6.30
4  COc1cc(C(=O)NC[C@](O)(c2cc3c(c(-c4ccc(Cl)cc4F)n2)OC[C@]3(C)C(N)=O)C2CC2)cc2cn(C3CC3)nc12              pEC50      > 6.30
5  C[C@]1(C(N)=O)COc2c1cc([C@@](O)(CNC(=O)c1cc(OCC(F)F)c3nn(C4(F)CC4)cc3c1)C(F)(F)F)nc2-c1cc(Cl)c(F)cc1F              pEC50      > 6.30
6  COc1cc(C(=O)NC[C@](O)(c2cc3c(c(-c4ccc(F)cc4)n2)OC[C@]3(C)C(N)=O)C2(F)CC2)cc2cn(C3CC3)nc12              pEC50      > 6.30

----------
# Test system: HMPV clinical isolate TN/1501/A1
# ASSAY EXPLANATION: HMPV antiviral assay Method-B (clinical isolate TN/1501/A1 in LLC-MK2 cells, ATP-Lite readout)
# Assay type: cell-based, Human metapneumovirus (HMPV)
# CONDITION INFO: human metapneumovirus, LLC-MK2, 144 h, hMPV WT1501 (clinical isolate TN/1501/A1), 6 days
pEC50: −log10 of the molar value.
MEASURED PROPERTY: pEC50

> print(dat)
                                smiles.code                   target.of.assay  data.value
1  COc1cc(C(=O)NC[C@](O)(c2cc3c(c(-c4ccc(F)c(F)c4F)n2)OC[C@]3(C)C(N)=O)C(F)(F)F)cc2cc(Cl)c(C)nc12  HMPV clinical isolate TN/1501/A1      > 6.30
2  COc1cc(C(=O)NC[C@](O)(c2cc3c(c(-c4ccc(C5CC5)cc4)n2)OC[C@]3(C)C(N)=O)C(F)(F)F)cc2cn(C3CC3)nc12  HMPV clinical isolate TN/1501/A1      < 6.30
3  COc1cc(C(=O)NC[C@@](O)(c2cc3c(c(-c4ccc(OC(F)F)c(F)c4)n2)OC[C@]3(C)C(N)=O)C(F)(F)F)cc2cn(C3CC3)nc12  HMPV clinical isolate TN/1501/A1      < 6.30
4  Cc1nc2c(Cl)cc(C(=O)NC[C@](O)(c3cc4c(c(-c5ccc(F)cc5)n3)OC[C@]4(C)C(N)=O)C(F)(F)F)cc2cc1Cl  HMPV clinical isolate TN/1501/A1      < 6.30
5  COc1cc(C(=O)NC[C@](O)(c2cc3c(c(-c4ccc(F)cc4Cl)n2)OC[C@]3(C)C(N)=O)C(F)(F)F)cc2cn(C3CC3)nc12  HMPV clinical isolate TN/1501/A1      > 6.30
6  Cc1cnc2c(OC(F)F)cc(C(=O)NC[C@](O)(c3cc4c(c(-c5cc(Br)c(F)cc5F)n3)OC[C@]4(C)C(N)=O)C3CC3)cc2c1  HMPV clinical isolate TN/1501/A1      > 6.30
7  COc1cc(C(=O)NC[C@](O)(c2cc3c(c(-c4ccc(F)c(C(F)(F)F)c4)n2)OC[C@]3(C)C(N)=O)C2(F)CC2)cc2cn(C(F)F)nc12  HMPV clinical isolate TN/1501/A1      > 6.30
8  COc1cc(C(=O)NC[C@](O)(c2cc3c(c(-c4cc(Cl)c(F)cc4F)n2)OC[C@]3(C)C(N)=O)C2CC2)cc2cc(Br)c(C)nc12  HMPV clinical isolate TN/1501/A1      > 6.30

----------
# Test system: HMPV clinical isolate TN/1501/A1
# ASSAY EXPLANATION: HMPV antiviral assay Method-B (clinical isolate TN/1501/A1 in LLC-MK2 cells, ATP-Lite readout)
# Type: cell-based, Human metapneumovirus (HMPV)
# CONDITION INFO: human metapneumovirus, LLC-MK2, 144 h, hMPV WT1501 (clinical isolate TN/1501/A1), 6 days
Catalogue of molecules with associated EC50
MEASURED PROPERTY: EC50

> print(dat)
                                smiles.code  measured.property  data.value
1  C[C@]1(C(N)=O)COc2c1cc([C@@](O)(CNC(=O)c1cc(OC3CC3)n3nc(C4CC4)cc3c1)C(F)(F)F)nc2-c1ccc(F)c(F)c1F               EC50    < 0.5 µM
2  COc1cc(C(=O)NC[C@@](O)(c2cc3c(c(-c4cc5c(cc4Cl)OC(F)(F)O5)n2)OC[C@]3(C)C(N)=O)C(F)(F)F)cc2cn(C3CC3)nc12               EC50    > 0.5 µM
3  COc1cc(C(=O)NC[C@](O)(c2cc3c(c(-c4cccc(C5CC5)c4)n2)OC[C@]3(C)C(N)=O)C(F)(F)F)cc2cn(C3CC3)nc12               EC50    > 0.5 µM
4  COc1cc(C(=O)NC[C@](O)(c2cc3c(c(-c4ccc5c(c4)OC(F)(F)O5)n2)OC[C@]3(C)C(N)=O)C2CC2)cc2cc(C)c(Cl)nc12               EC50    < 0.5 µM
5  COc1cc(C(=O)NC[C@](O)(c2cc3c(c(-c4csc5c(F)cccc45)n2)OC[C@]3(C)C(N)=O)C2CC2)cc2cn(C(F)F)nc12               EC50    < 0.5 µM

----------
# Tested on: HMPV clinical isolate TN/1501/A1
# ASSAY EXPLANATION: HMPV antiviral assay Method-B (clinical isolate TN/1501/A1 in LLC-MK2 cells, ATP-Lite readout)
# Assay type: cell-based, Human metapneumovirus (HMPV)
# CONDITION INFO: human metapneumovirus, LLC-MK2, 144 h, hMPV WT1501 (clinical isolate TN/1501/A1), 6 days
pEC50: −log10 of the molar value.
MEASURED PROPERTY: pEC50

> print(dat)
                                smiles.code  data.value
1  COc1cc(C(=O)NC[C@](O)(c2nc(-c3ccc4c(c3)OC(F)(F)O4)c3c(c2F)[C@](C)(C(N)=O)CO3)C2CC2)cc2cn(C(F)F)nc12      < 6.30
2  COc1cc(C(=O)NC[C@](O)(c2cc3c(c(-c4ccc(F)c(F)c4Cl)n2)OC[C@]3(C)C(N)=O)C(F)(F)F)cc2cn(C(F)F)nc12      > 6.30
3  COc1cc(C(=O)NC[C@](O)(c2cc3c(c(-c4cc(F)c(F)cc4F)n2)OC[C@]3(C)C(N)=O)C(F)(F)F)cc2cn(C3CC3)nc12      > 6.30
4  COc1cc(C(=O)NC[C@](O)(c2cc3c(c(-c4ccc(F)c(Br)c4F)n2)OC[C@]3(C)C(N)=O)C(F)(F)F)cc2cn(C3CC3)nc12      > 6.30
5  Cc1nc2c(OC3CC3)cc(C(=O)NC[C@](O)(c3cc4c(c(-c5ccc6c(c5)OC(F)(F)O6)n3)OC[C@]4(C)C(N)=O)C3CC3)cc2cc1Cl      > 6.30
6  COc1cc(C(=O)NC[C@](O)(c2cc3c(c(-c4cc(F)ccc4Cl)n2)OC[C@]3(C)C(N)=O)C(F)(F)F)cc2cn(C3CC3)nc12      > 6.30
7  COc1cc(C(=O)NC[C@](O)(c2cc3c(c(-c4csc(C(F)(F)F)c4)n2)OC[C@]3(C)C(N)=O)C(F)(F)F)cc2cn(C3CC3)nc12      > 6.30
8  C[C@]1(C(N)=O)COc2c1cc([C@@](O)(CNC(=O)c1ccnc3nccn13)C(F)(F)F)nc2-c1ccc(F)cc1      < 6.30
9  COc1cc(C(=O)NC[C@](O)(c2cc3c(c(-c4cc(Cl)c(F)cc4F)n2)OC[C@]3(C)C(N)=O)C2CC2)cc2cn(C3(F)CC3)nc12      > 6.30
